# Test system: C2A
# run_description: qHTS profiling for inhibitors of Plasmodium falciparum proliferation (AID 504749); further: nearly all actives have a fitted effect of over 60% in size
# condition: P. falciparum in erythrocytes, SYBR Green DNA, 72 h; series mostly up to 28.7 µM
Results filed as inconclusive are left out. Active and inactive are the calls of the source. The call rests on the fitted dose curve; in most records, active means well fitted inhibition curve with a large enough effect; inconclusive means small, poorly fitted or top-dose-only effect; inactive means flat fitted curve, though single readings scatter.
Can you answer with just one of these options? YES = active, NO = inactive

Per the records of this test, what outcome belongs to C=C(NCc1ccccc1)c1ccccc1O ?
NO

Assay outcome for C[C@@H]1C(SC2Cn3cnc[n+]3C2)=C(C(=O)[O-])N2C(=O)[C@H]([C@@H](C)O)[C@@H]12 (stereo partly drawn) : what was it?
NO

Please let me know the test result on file for O=C(O)C[CH2][Ge](=[O])[O][Ge](=[O])[CH2]CC(=O)O .
NO

I would be grateful if you could indicate the recorded call for OCC(CO)NC1C[C@](O)(CO)[C@@H](O)[C@H](O)[C@H]1O (stereo partly drawn) .
NO

Tell me the assay call for C=C1NC(=O)c2cc(CN(C)c3ccc(C(=O)N[C@@H](CCC(=O)O)C(=O)O)s3)ccc2N1 please.
NO

Could you please tell me the result logged for CC[C@@H]1/C=C(\C)C[C@H](C)C[C@H](OC)[C@H]2O[C@@](O)(C(=O)C(=O)N3CCCC[C@H]3C(=O)O[C@H](/C(C)=C/[C@@H]3CC[C@H](Cl)[C@H](OC)C3)[C@H](C)[C@@H](O)CC1=O)[C@H](C)C[C@@H]2OC in this assay?
NO

Hi, sorry to bother you, what did the test record for OCC1O[C@H](O[C@H]2C(O)C(O)C(O)O[C@@H]2CO)C(O)C(O)C1O (stereo partly drawn) ?
NO

Answer briefly: the call reported for CCCCN1CC(O)C(O)C(O)C1CO (stereo not drawn) in this assay.
NO

Can you look up the reported call for C=CC1CN2CCC1CC2[C@@H](O)c1ccnc2ccc(OC)cc12 (stereo partly drawn) for me?
YES

Recorded test call requested for C[C@H](O)[C@@H]1C(=O)N2C(C(=O)O)=C(SCCN=CN)C[C@@H]12
NO

Recorded call for CC(=O)O[C@]1(C(C)=O)CCC2C3CCC4=CC(=O)CCC4(C)C3(F)C(O)CC21C (stereo partly drawn) ?
NO

Write down the call the test reported for this compound. Item: CCCCCCCCCCCCCCCC(=O)OCC(COP(=O)(O)OCC[N+](C)(C)C)OC(=O)CCCCCCCCCCCCCCC (stereo not drawn)
NO

Returns: the outcome recorded for CC(C)CCCC(C)C1CC(=O)C2=C3CCC4CC(O)CCC4(C)C3CCC21C (stereo not drawn) in this assay.
NO

Hi, do you know how CNC(=O)C(N)CSC(C)C1=C(C)c2cc3[n-]c(cc4nc(cc5[n-]c(cc1n2)c(C)c5CCC(=O)O)C(CCC(=O)O)=C4C)c(C)c3C(C)SCC(N)C(=O)NC.[Fe+2] (stereo not drawn) came out in this test?
NO

Dear colleague, could you share the recorded outcome for CC(C)(C)NC[C@H](O)CSc1nc(-c2ccc(C(N)=O)s2)cs1 when you have a moment?
NO

Please indicate how the test categorized CCCCC(=O)O[C@]1(C(=O)CO)CCC2C3CCC4=CC(=O)CCC4(C)C3C(O)CC21C (stereo partly drawn) .
NO

Could you please tell me the result logged for CC(c1ncncc1F)[C@](O)(Cn1cncn1)c1ccc(F)cc1F (stereo partly drawn) in this assay?
NO

Call for entry CO/N=C(/C(=O)N[C@@H]1C(=O)N2C(C(=O)O)=C(C[n+]3ccc(N)n3CCO)CS[C@H]12)c1csc(N)n1 :
NO
